Reported EC50 is given for each of the following molecules.
- measured on: Gag precursor protein (Human immunodeficiency virus type 1 group M subtype B, UniProt P04591)
- Construct: human immunodeficiency virus type 1 Gag protein lacking the p6 domain; made in house
- method: Secondary screen: disruption of in vitro assembly of Gag precursor protein into virus-like particles
- Assay type: biochemical
- assay conditions: in vitro; assay not given
measured endpoint: EC50 (µM)

{"smiles input": "O=C(O)c1cc[c]([Sb](=[O])([OH])[OH])cc1[N+](=O)[O-]", "measured": 6.15}
{"smiles input": "COC(=O)c1ccc[c]([Sb](=[O])([OH])[OH])c1", "measured": 5.5}
{"smiles input": "CCOC(=O)CCCc1cc[c]([Sb](=[O])([OH])[OH])cc1", "measured": 3.25}
{"smiles input": "O=C(O)c1ccc[c]([Sb](=[O])([OH])[OH])c1", "measured": 1.5}
{"smiles input": "O=C(O)/C=C/c1ccc[c]([Sb](=[O])([OH])[OH])c1", "measured": 3.8}
{"smiles input": "O=C(O)c1cc[c]([Sb](=[O])([OH])[OH])cc1", "measured": 1.15}
{"smiles input": "O=S(=O)(O)c1cc[c]([Sb](=[O])([OH])[OH])cc1", "measured": 10}
{"smiles input": "NC(=O)c1ccc[c]([Sb](=[O])([OH])[OH])c1", "measured": 3.75}

Taken from patent US7572828B2.
